Cited source for all entries: ChEMBL document CHEMBL3813607

# Test system: K562
# assay_notes: Cytotoxicity against human K562 cells assessed as cell growth inhibition after 72 hrs by MTT assay
# Type: functional, cell-based
# condition_details: K562, 72 h
quantity_name: pIC50
Reminder that pIC50 means the negative base-10 logarithm of the concentration expressed in mol/L.

compound_structure_string: CC(=O)O[C@@H]1C=CC(=O)O[C@@H]1[C@@H](COC(=O)c1c(Cl)cc(Cl)cc1Cl)OC(C)=O
target_of_assay: K562
quantity_name: pIC50
assay_result: 5.99

Per the reported K562 data, CC(=O)O[C@@H]1C=CC(=O)O[C@@H]1[C@@H](COC(=O)c1ccccc1)OC(C)=O has pIC50 of 5.12

Per the reported K562 data, COc1cccc(C(=O)OC[C@@H](OC(C)=O)[C@H]2OC(=O)C=C[C@H]2OC(C)=O)c1 has pIC50 of 5.57

Per the reported K562 data, CC(=O)O[C@@H]1C=CC(=O)O[C@@H]1[C@@H](COC(=O)/C=C/c1ccccc1)OC(C)=O has pIC50 of 6.55

###

Reported pIC50 values are given for each entry in this list.
# Tested on: MDA-MB-231
# assay_notes: Cytotoxicity against human MDA-MB-231 cells assessed as cell growth inhibition after 72 hrs by MTT assay
# Format: functional, cell-based
# condition_details: MDA-MB-231, 72 h
Reminder that pIC50 means the negative base-10 logarithm of the concentration expressed in mol/L.

Guide cases for pIC50, answers given:
compound_structure_string: CC(=O)O[C@@H]1C=CC(=O)O[C@@H]1[C@@H](COC(=O)c1c(Cl)cc(Cl)cc1Cl)OC(C)=O
assay_result: 7.70
--
compound_structure_string: COc1cccc(C(=O)OC[C@@H](OC(C)=O)[C@H]2OC(=O)C=C[C@H]2OC(C)=O)c1
assay_result: 5.13
--
compound_structure_string: CC(=O)O[C@@H]1C=CC(=O)O[C@@H]1[C@@H](COC(=O)/C=C/c1ccccc1)OC(C)=O
assay_result: 5.84

Note: attention shifts to another entry.
Looking up CC(=O)O[C@@H]1C=CC(=O)O[C@@H]1[C@@H](COC(=O)c1ccccc1)OC(C)=O , I see its pIC50 listed as 5.65
